- MEASURED_TARGET: human TYK2 kinase domain (JH1) (Homo sapiens, UniProt P29597)
- Construct: recombinantly generated catalytic kinase (also known as JH1) domain of human JAK1, JAK2, JAK3 and TYK2
- Sequence (P29597 897-1176 limits assumed): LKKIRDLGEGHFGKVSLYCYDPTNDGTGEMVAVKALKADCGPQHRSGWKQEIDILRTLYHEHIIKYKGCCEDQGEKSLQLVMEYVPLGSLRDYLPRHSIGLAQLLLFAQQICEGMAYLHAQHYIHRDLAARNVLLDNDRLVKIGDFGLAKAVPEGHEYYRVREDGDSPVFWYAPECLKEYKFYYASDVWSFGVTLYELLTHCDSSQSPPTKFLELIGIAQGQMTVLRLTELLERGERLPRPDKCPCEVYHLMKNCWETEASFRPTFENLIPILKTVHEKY
- TEST_DETAILS: JH1 biochemical assay for TYK2 (ADP-Glo kinase assay, recombinant JH1 catalytic domain, JAK3-974 peptide, 10 μM ATP)
- STUDY_CONDITIONS: TYK2 JH1, ADP-Glo
pIC50: −log10 of the molar value.
MEASURED_QUANTITY: pIC50

COMPOUND	pIC50
C[C@@H]1CN(c2ccnn3cc(-c4cnn(C5CC6(COC6)C5)c4)cc23)C(=O)[C@]1(C#N)C1CC1	> 8.30

Write down pIC50 measured for item `Cc1cc(-n2nc(N3C[C@@H](C)[C@@](C#N)(C4CC4)C3=O)c3ccncc32)ccn1`
7.70 to 8.30

Write down pIC50 measured for item `C[C@@H]1CN(c2nc(-c3cnn([C@H]4C[C@@](C)(C#N)C4)c3)cn3ncc(F)c23)C(=O)[C@]1(C#N)C1CC1`
> 8.30

###

Quick reference: IC50 of the listed items.
- MEASURED_TARGET: Tyk2 kinase activity on STAT4 in NK92 cells (Homo sapiens)
- TEST_DETAILS: pSTAT4 cell assay (MSD; NK92 cells, 30 ng/mL IL2 stimulation)
- STUDY_CONDITIONS: 30 ng/mL IL2, 15 minutes
Counter-ions that a name gives are not always drawn.

COMPOUND	VALUE_REPORTED
C[C@@H]1CN(c2ccnn3cc(-c4cc[nH]n4)cc23)C(=O)[C@]1(C#N)C1CC1 [Example 66, trifluoroacetate]	> 0.1 µM
C[C@@H]1CN(c2nc(-c3cnn(C4CC(F)(F)C4)c3)cn3nccc23)C(=O)[C@]1(C#N)C1CC1 [Example 290]	0.02 to 0.05 µM
C[C@@H]1CN(c2nc(-c3cnn([C@H]4CO[C@@H]4C)c3)cn3ncc(F)c23)C(=O)[C@]1(C#N)C1CC1 (relative stereo) [Example 306]	0.02 to 0.05 µM
[2H]C([2H])([2H])n1cc(-c2cc3c(N4C[C@@H](C)[C@@](C#N)(C5CC5)C4=O)ccnn3c2)cn1 [Example 164]	0.02 to 0.05 µM

Write down IC50 measured for item CNC(=O)c1ccc(-c2cn3nccc3c(N3C[C@@H](C)[C@@](C#N)(C4CC4)C3=O)n2)cn1 [Example 227, trifluoroacetate]
> 0.1 µM

Write down IC50 measured for item C[C@@H]1CN(c2ccnn3cc(-c4ccc(S(C)(=O)=O)nc4)cc23)C(=O)[C@]1(C#N)C1CC1 [Example 52]
> 0.1 µM

Write down IC50 measured for item C[C@@H]1CN(c2nc(-c3cnn(-c4cccnc4)c3)cn3nccc23)C(=O)[C@]1(C#N)C1CC1 [Example 294]
0.02 to 0.05 µM

###

- MEASURED_TARGET: human JAK3 kinase domain (JH1) (Homo sapiens, UniProt P52333)
- Construct: recombinantly generated catalytic kinase (also known as JH1) domain of human JAK1, JAK2, JAK3 and TYK2
- Sequence (P52333 822-1111 limits assumed): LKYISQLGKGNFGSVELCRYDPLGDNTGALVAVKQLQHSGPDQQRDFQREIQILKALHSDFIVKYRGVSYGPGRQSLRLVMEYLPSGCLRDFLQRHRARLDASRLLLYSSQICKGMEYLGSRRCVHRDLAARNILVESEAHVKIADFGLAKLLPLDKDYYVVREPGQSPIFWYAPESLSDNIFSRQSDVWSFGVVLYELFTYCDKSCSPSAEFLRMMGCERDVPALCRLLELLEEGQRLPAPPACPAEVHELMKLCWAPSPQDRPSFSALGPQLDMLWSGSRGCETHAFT
- TEST_DETAILS: JH1 biochemical assay for JAK3 (ADP-Glo kinase assay, recombinant JH1 catalytic domain, JAK3-974 peptide, 4 μM ATP)
- STUDY_CONDITIONS: JAK3 JH1, ADP-Glo
Structures can show the parent of a compound that is named as a salt.
MEASURED_QUANTITY: IC50

// below: answered molecules
MOLECULE	VALUE_REPORTED
C[C@@H]1CN(c2nc(-c3cnn([C@H]4C[C@](C)(C#N)C4)c3)cn3ncc(F)c23)C(=O)[C@]1(C#N)C1CC1 [Example 308]	< 100 nM
CNC(=O)c1cc(-c2cn3nccc3c(N3C[C@@H](C)[C@@](C#N)(C4CC4)C3=O)n2)ccn1 [Example 252, trifluoroacetate]	100 to 1000 nM

Below: the item to evaluate.
Write down IC50 measured for item C[C@@H]1CN(c2ccnn3cc(-n4ccnc4)cc23)C(=O)[C@]1(C#N)C1CC1 [Example 336]
100 to 1000 nM

###

- MEASURED_TARGET: JAK2 kinase activity on STAT5 in TF1 cells (Homo sapiens, UniProt O60674)
- Sequence (O60674 whole entry): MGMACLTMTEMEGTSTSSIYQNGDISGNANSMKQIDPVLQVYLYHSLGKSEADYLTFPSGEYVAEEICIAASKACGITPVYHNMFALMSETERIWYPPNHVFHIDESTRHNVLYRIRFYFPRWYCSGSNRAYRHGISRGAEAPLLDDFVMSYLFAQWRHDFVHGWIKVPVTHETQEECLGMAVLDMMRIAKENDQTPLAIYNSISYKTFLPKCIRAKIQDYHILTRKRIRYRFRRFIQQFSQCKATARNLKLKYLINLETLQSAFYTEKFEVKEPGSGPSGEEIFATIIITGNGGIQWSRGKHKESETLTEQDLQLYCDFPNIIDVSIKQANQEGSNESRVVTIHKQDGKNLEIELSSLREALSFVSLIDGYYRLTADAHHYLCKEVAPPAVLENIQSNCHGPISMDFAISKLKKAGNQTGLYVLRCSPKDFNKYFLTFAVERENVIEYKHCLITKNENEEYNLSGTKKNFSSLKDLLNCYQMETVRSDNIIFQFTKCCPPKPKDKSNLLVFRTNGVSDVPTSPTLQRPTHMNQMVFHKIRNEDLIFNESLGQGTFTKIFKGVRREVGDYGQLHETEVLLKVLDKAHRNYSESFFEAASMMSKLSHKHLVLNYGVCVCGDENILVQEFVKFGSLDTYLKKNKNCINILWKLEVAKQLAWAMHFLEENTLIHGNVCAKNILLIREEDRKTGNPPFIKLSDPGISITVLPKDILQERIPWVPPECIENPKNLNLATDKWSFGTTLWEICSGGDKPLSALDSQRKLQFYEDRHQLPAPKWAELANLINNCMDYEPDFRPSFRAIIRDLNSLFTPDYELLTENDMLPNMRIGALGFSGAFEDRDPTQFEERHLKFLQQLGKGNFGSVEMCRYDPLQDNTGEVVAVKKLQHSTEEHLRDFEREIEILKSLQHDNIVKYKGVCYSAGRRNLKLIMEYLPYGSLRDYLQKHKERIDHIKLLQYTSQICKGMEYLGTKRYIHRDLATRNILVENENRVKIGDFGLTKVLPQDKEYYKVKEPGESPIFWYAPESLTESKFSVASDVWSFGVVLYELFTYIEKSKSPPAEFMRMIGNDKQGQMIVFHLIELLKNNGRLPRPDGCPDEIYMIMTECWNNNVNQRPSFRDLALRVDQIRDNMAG
- TEST_DETAILS: pSTAT5 cell assay (MSD; TF1 cells, 30 ng/mL IL-3 stimulation)
- Assay type: cell-based
- STUDY_CONDITIONS: 30 ng/mL IL-3, 15 minutes
pIC50: −log10 of the molar value. Structures can show the parent of a compound that is named as a salt.
MEASURED_QUANTITY: pIC50

// below: answered molecules
MOLECULE	pIC50
C[C@@H]1CN(c2nc(-c3cc[nH]n3)cn3nccc23)C(=O)[C@]1(C#N)C1CC1 [Example 232, trifluoroacetate]	< 5.00
C[C@@H]1CN(c2ccnn3cc(-c4c[nH]c5ncccc45)cc23)C(=O)[C@]1(C#N)C1CC1 [Example 72]	5.00 to 5.30
COc1ncccc1-c1cc2c(N3C[C@@H](C)[C@@](C#N)(C4CC4)C3=O)ccnn2c1 [Example 96]	< 5.00
C[C@@H]1CN(c2nc(-c3cnn(C)c3)cn3nccc23)C(=O)[C@]1(C#N)C1CC1 [Example 184]	6.00 to 7.00

Write down pIC50 measured for item C[C@@H]1CN(c2ccnn3cc(-c4cnn([C@H]5C[C@@](F)(C#N)C5)c4)cc23)C(=O)[C@]1(C#N)C1CC1 [Example 326]
5.30 to 6.00

Write down pIC50 measured for item Cc1cn(-c2cc3c(N4C[C@@H](C)[C@@](C#N)(C5CC5)C4=O)ccnn3c2)cn1 [Example 341]
5.00 to 5.30

Write down pIC50 measured for item C[C@@H]1CN(c2cc(-c3cnn(C)c3)cc3ncsc23)C(=O)[C@]1(C#N)C1CC1 [Example 350]
5.30 to 6.00

Write down pIC50 measured for item C[C@@H]1CN(c2ccnn3cc(-c4cn(C5COC5)nc4F)cc23)C(=O)[C@]1(C#N)C1CC1 [Example 321]
5.30 to 6.00

Write down pIC50 measured for item C[C@@H]1CN(c2ccnn3cc(-c4cnn([C@H]5C[C@H](C#N)C5)c4)cc23)C(=O)[C@]1(C#N)C1CC1 [Example 330]
5.30 to 6.00

###

- MEASURED_TARGET: JAK1 kinase activity on STAT3 in TF1 cells (Homo sapiens)
- Sequence (P23458 whole entry): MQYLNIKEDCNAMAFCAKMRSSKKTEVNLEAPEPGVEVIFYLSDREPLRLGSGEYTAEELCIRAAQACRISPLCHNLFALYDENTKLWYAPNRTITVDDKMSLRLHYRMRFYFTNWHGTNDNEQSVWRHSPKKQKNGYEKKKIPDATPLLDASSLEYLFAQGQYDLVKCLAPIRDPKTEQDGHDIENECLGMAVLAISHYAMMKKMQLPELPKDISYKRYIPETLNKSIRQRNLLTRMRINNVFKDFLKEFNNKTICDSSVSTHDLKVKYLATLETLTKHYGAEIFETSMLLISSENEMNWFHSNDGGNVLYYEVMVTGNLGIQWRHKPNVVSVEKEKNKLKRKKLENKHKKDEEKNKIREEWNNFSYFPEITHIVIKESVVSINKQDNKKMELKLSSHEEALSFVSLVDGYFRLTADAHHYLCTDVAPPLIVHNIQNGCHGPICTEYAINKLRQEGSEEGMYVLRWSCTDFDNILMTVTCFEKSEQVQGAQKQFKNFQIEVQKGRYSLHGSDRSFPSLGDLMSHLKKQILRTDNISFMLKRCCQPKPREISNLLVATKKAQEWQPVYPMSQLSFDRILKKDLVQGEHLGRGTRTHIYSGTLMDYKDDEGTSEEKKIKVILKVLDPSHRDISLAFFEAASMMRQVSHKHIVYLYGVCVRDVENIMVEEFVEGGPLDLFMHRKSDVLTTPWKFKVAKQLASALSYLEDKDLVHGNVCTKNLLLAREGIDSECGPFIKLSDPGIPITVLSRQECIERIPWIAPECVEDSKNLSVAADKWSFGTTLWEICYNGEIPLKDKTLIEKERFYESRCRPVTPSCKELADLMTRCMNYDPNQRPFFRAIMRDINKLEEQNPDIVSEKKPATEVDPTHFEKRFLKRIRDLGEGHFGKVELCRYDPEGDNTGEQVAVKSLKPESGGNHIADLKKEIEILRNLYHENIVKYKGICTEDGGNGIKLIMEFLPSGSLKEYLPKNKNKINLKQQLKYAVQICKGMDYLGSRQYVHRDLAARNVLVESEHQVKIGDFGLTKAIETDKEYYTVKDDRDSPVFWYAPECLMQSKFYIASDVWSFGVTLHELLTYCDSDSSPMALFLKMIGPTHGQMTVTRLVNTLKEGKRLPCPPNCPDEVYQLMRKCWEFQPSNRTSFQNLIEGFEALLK
- TEST_DETAILS: pSTAT3 cell assay (MSD; TF1 cells, 30 ng/mL IL-6 stimulation)
- STUDY_CONDITIONS: 30 ng/mL IL-6, 15 minutes
Where a name gives a salt, the structure may show the parent alone.
Quick reference: IC50 of the listed items.

// below: answered molecules
MOLECULE	VALUE_REPORTED
C[C@@H]1CN(c2nc(-c3ccnc(C(F)(F)F)c3)cn3nccc23)C(=O)[C@]1(C#N)C1CC1 [Example 234, trifluoroacetate]	> 10 µM
C[C@@H]1CN(c2ccnc3cc(-c4cnn(C5CC5)c4)oc23)C(=O)[C@]1(C#N)C1CC1 [Example 347]	1 to 5 µM
C[C@@H]1CN(c2ccnn3cc(-n4cccn4)cc23)C(=O)[C@]1(C#N)C1CC1 [Example 335]	> 10 µM
C[C@@H]1CN(c2nc(-c3cnc(N(C)C)nc3)cn3nccc23)C(=O)[C@]1(C#N)C1CC1 [Example 264, trifluoroacetate]	> 10 µM
COc1ccc(-c2cc3c(N4C[C@@H](C)[C@@](C#N)(C5CC5)C4=O)ccnn3c2)cn1 [Example 48]	1 to 5 µM
C[C@@H]1CN(c2ccnn3cc(-c4cccc5c4cnn5C)cc23)C(=O)[C@]1(C#N)C1CC1 [Example 54]	5 to 10 µM

Write down IC50 measured for item C[C@@H]1CN(c2nc(-c3cnn(C(F)F)c3)cc3ncsc23)C(=O)[C@]1(C#N)C1CC1 [Example 353]
< 0.1 µM

###

- MEASURED_TARGET: human TYK2 kinase domain (JH1) (Homo sapiens)
- Construct: recombinantly generated catalytic kinase (also known as JH1) domain of human JAK1, JAK2, JAK3 and TYK2
- TEST_DETAILS: JH1 biochemical assay for TYK2 (ADP-Glo kinase assay, recombinant JH1 catalytic domain, JAK3-974 peptide, 10 μM ATP)
- STUDY_CONDITIONS: TYK2 JH1, ADP-Glo
pIC50: −log10 of the molar value. Where a name gives a salt, the structure may show the parent alone.
MEASURED_QUANTITY: pIC50

// below: answered compounds
COMPOUND	pIC50
Cc1cnn(-c2cc3c(N4C[C@@H](C)[C@@](C#N)(C5CC5)C4=O)ccnn3c2)n1 [Example 343]	< 7.00
C[C@@H]1CN(c2nc(-c3cnn(-c4cccnc4)c3)cn3nccc23)C(=O)[C@]1(C#N)C1CC1 [Example 294]	> 8.30
C[C@@H]1CN(c2ccnn3cc(-c4cnn(C5(CC#N)CC5)c4)cc23)C(=O)[C@]1(C#N)C1CC1 [Example 323]	> 8.30
C[C@@H]1CN(c2nc(-c3cnn(CC#N)c3)cn3ncc(F)c23)C(=O)[C@]1(C#N)C1CC1 [Example 220]	> 8.30
C[C@@H]1CN(c2nc(-c3cncc(O)c3)cn3nccc23)C(=O)[C@]1(C#N)C1CC1 [Example 258, trifluoroacetate]	7.70 to 8.30

Write down pIC50 measured for item C[C@@H]1CN(c2nc(-c3cnn(C4COC4)c3)cn3ncc(F)c23)C(=O)[C@]1(C#N)C1CC1 [Example 291]
> 8.30

Write down pIC50 measured for item C[C@@H]1CN(c2cc(-c3cnn(C(F)F)c3)cn3ncc(F)c23)C(=O)[C@]1(C#N)C1CC1 [Example 270]
7.30 to 7.70

Write down pIC50 measured for item C[C@@H]1CN(c2nc(-c3cnn([C@H]4C[C@@](F)(C#N)C4)c3)cn3ncc(F)c23)C(=O)[C@]1(C#N)C1CC1 [Example 309]
> 8.30
